Just for reference, patent US20250255889A1 is where these values come from.

Test system: primary CLL samples (CD19+ and CD5+ cells)
ASSAY_REMARKS: High-throughput dynamic BH3 profiling (HT-DBP): drug-induced apoptotic priming (delta priming), cytochrome c release after BH3 peptide
Format: cell-based, human
TEST_SETTINGS: peptide PUMA 1 uM; feature loss_3p21.31

COMPOUND: O=C(CCCCCCNC(=O)c1cnc(N(c2ccccc2)c2ccccc2)nc1)NO [Ricolinostat]
TARGET_OR_TEST_SYSTEM: primary CLL samples (CD19+ and CD5+ cells)
direction: Resistant

COMPOUND: C=CC(=O)Nc1cc(Nc2nccc(-c3cn(C)c4ccccc34)n2)c(OC)cc1N(C)CCN(C)C [Osimertinib]
TARGET_OR_TEST_SYSTEM: primary CLL samples (CD19+ and CD5+ cells)
direction: Resistant

COMPOUND: Cc1sc2c(c1C)C(c1ccc(Cl)cc1)=N[C@@H](CC(=O)OC(C)(C)C)c1nnc(C)n1-2 [JQ1]
TARGET_OR_TEST_SYSTEM: primary CLL samples (CD19+ and CD5+ cells)
direction: Resistant
